Please respond with reported Inhibition for every item in the list.
# Test system: HepG2
# experimental_details: GSK_TCMDC: Percent inhibition of human HepG2 cell line. Test compounds present at 10uM.
# Format: functional
Give the value in % but do not write % after it.

input: Please report the measured Inhibition for COc1ccc(CN2C(=S)N(Cc3ccccc3)C(=O)C2CC(=O)Nc2ccccc2)cc1OC (stereo not drawn) tested on HepG2.
output: 6

input: Determine reported Inhibition for `O=C1C(=Cc2cc(Cc3ccccc3)ccc2O)SC(=S)N1Cc1ccccc1` ; test system: HepG2.
output: 16

input: Report value: Inhibition, system: HepG2, compound: `O=C(/C=C/c1ccc(Cl)c(Cl)c1)N1CCC(CN2CCC(c3c[nH]c4cnccc34)CC2)CC1`
output: 39

input: State the measured Inhibition (HepG2) of `O=C(Nc1ccncc1)c1cn(-c2ccccc2)nc1-c1cccs1`
output: 7

input: State recorded Inhibition with HepG2, entry `CC(=O)Nc1cccc(C(=O)Nc2cccc(-c3ccc(-c4nc5cccc(C)c5[nH]4)cc3)c2)c1` , no comment.
output: 29

input: Report the value of Inhibition obtained on HepG2 for `O=C(Cn1cc(C(F)(F)F)cc(Cl)c1=O)N1CCN(S(=O)(=O)c2ccc(Cl)cc2)CC1` .
output: 14

input: Give Inhibition only, for `O=C(NCCc1cccc(F)c1)c1ccc(N2CCN(c3ccncc3)CC2)cn1.O=C(O)C(F)(F)F` , using HepG2 data.
output: 4

input: Provide Inhibition, system HepG2, entry `O=C(Nc1ccc2c(c1)CCC2)c1cccc(CN2CCCN(Cc3cccc(O)c3)CC2)c1.O=C(O)C(F)(F)F`
output: 10

input: Send back HepG2 Inhibition of `CN1CCC(C(=O)N(Cc2ccc(-c3ccc(CNCCc4ccc(S(C)(=O)=O)cc4)cn3)cc2)C2Cc3ccccc3C2)CC1.O=C(O)C(F)(F)F` only.
output: 21

input: Would you please give the reported Inhibition of `COc1ccc(CNC2CCN(c3ccc(NC(=O)c4cccc(Cl)c4)cc3)CC2)cc1OC` with HepG2?
output: 26

input: Find Inhibition for CC(O)C1CCCCN1C(=O)c1cccc(-c2ccc(-c3nc4cc(C(F)(F)F)ccc4[nH]3)cc2)c1 (stereo not drawn) on HepG2 and write it down.
output: 33

input: Provide HepG2 Inhibition reading for `O=C(Nc1ccccc1)c1ccc(-c2cc3ccncc3cc2OC2CCNCC2)s1` .
output: 0

input: Print HepG2 Inhibition for `O=C(O)C(F)(F)F.c1ccc2c(c1)CN(Cc1ccsc1)CC1(CCN(Cc3c[nH]c4cnccc34)CC1)O2` .
output: 38

input: Check HepG2 data and give Inhibition for `Fc1ccc2[nH]c(-c3ccc(-c4ccc(CN5CCN(c6cnccn6)CC5)cc4)s3)nc2c1.O=C(O)C(F)(F)F` .
output: 45

input: Report measured Inhibition on HepG2; entry: `Oc1ccc(CCNc2nc(N/N=C/c3ccc(Cl)cc3)nc(N3CCNCC3)n2)cc1`
output: 14

input: Recall the reported Inhibition of `O=C(NC1CCN(Cc2ccccc2)CC1)c1ccc(-c2nc3cc(Cl)c(F)cc3[nH]2)s1` when tested on HepG2.
output: 28

input: Write down the reported Inhibition (system: HepG2) of `Cc1ccc(-c2noc(=O)n2CC(=O)Nc2ccccc2-c2ccccc2)cc1`
output: 0

input: Specify the recorded Inhibition for COc1cc2c(cc1COc1ccccc1)CCN1Cc3cc(OC)c(OC)cc3CC21 (stereo not drawn) , system: HepG2.
output: 0

The measurements presented in this section are drawn from ChEMBL document CHEMBL1157539.
